- SUBJECT OF TEST: VEGF-A165 (human, UniProt P15692-4 27-191)
- Sequence (P15692 other isoform, or with tags, fused parts or gaps): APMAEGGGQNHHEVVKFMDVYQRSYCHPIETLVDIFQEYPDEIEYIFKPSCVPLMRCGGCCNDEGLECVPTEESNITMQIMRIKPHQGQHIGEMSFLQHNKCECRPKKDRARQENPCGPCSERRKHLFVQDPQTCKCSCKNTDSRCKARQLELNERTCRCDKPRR
- ASSAY METHOD TEXT: MST; TBSET: 10 mM Tris, 100 mM NaCl, 50 mM KCl, 0.05 mM EDTA, 0.05% Tween 20, pH 7; MST with 25 nM aptamer, 20 min at 20 C, read at room temperature; microarray in TBSETB (TBSET + 1% BSA), 1 h for the co-incubation
- CONDITION PARAMETERS: protein: recombinant; chain copies: 2; label: 3' Cy5; G-quadruplex with three G-quartets

| BINDER | Kd (nM) |
| --- | --- |
| TGTGGGGGTGGACGGGCCGGGTAGATAGTATGTGCAATC (structured_DNA) [V7t1-Cy5] | 201 |
